Below: a set of entries, each annotated with reported pest or weed control at 2 ppm.
# Tested on: Erysiphe cichoracearum on cucumbers
# PROTOCOL DESCRIPTION: Greenhouse trial, 4 day residual, Erysiphe cichoracearum on cucumbers
# Type: in vivo
# REPORTED CONDITIONS: Golovinomyces cichoracearum, 96 h, Table XI; compound alone, dose rate 2 ppm; read-out: Observed Efficacy

MOLECULE	pest or weed control at 2 ppm
COc1cc(C)c(C(=O)c2c(OC)ccc(Br)c2C)c(OC)c1OC	2%

# molecule S1SSSSSSS1 ; its pest or weed control at 2 ppm = 0%

Record CC(C)(C)C(O)(CCc1ccc(Cl)cc1)Cn1cncn1 (stereo not drawn) , field pest or weed control at 2 ppm: 45%

----------
# System: Leptosphaeria nodorum on wheat
# PROTOCOL DESCRIPTION: Greenhouse trial, 4 day residual, Leptosphaeria nodorum on wheat
# Type: in vivo
# REPORTED CONDITIONS: Parastagonospora nodorum, 96 h, Table VIII; compound alone, dose rate 64 ppm; read-out: Observed Efficacy
// reported pest or weed control at 64 ppm for each item listed
The reply should be a number in %, with the unit left off.

COMPOUND	UNIT SYMBOL	pest or weed control at 64 ppm
COc1ccc(C(=CC(=O)N2CCOCC2)c2ccc(Cl)cc2)cc1OC	%	11
N#Cc1sc2c(=O)c3ccccc3c(=O)c=2sc1C#N	%	37
CC(Cc1ccc(C(C)(C)C)cc1)CN1CCCCC1 (stereo not shown)	%	0

We now examine a further compound.
Given item COc1cc(C)c(C(=O)c2c(OC)ccc(Br)c2C)c(OC)c1OC , the value recorded as its pest or weed control at 64 ppm is 14

----------
# System: Erysiphe cichoracearum on cucumbers
# PROTOCOL DESCRIPTION: Greenhouse trial, 4 day residual, Erysiphe cichoracearum on cucumbers
# Assay type: in vivo
# REPORTED CONDITIONS: Golovinomyces cichoracearum, 96 h, Table XIV (Example 14), 4 day residual, dose rate 10 ppm; read-out: Observed Efficacy
# Description: The fungicides are applied in single treatments, or in a combination comprising a benzophenone of formula I and a compound selected from (A) through (E) as defined above. […] 4. Disease on the foliage as percent leaf area with disease symptoms/signs is evaluated about 7 days after inoculation. […] Assessments of the diseases took place at the indicated day after the application of the compounds. Per cent infected leaf area infected was evaluated. […]
Criterion: pest or weed control at 10 ppm strictly under 40%. Met: label 1. Not met: label 0.

Exercise: Is the reported pest or weed control at 10 ppm for OC(c1ccc(Cl)cc1)(c1cncnc1)c1ccccc1Cl (stereo not drawn) strictly below 40%?
Solution: label 0

Exercise: Take the molecule CON=C(Cc1cccnc1)c1ccc(Cl)cc1Cl and say whether its pest or weed control at 10 ppm is less than 40%.
Solution: label 1

Exercise: Please determine if CCCN(CC)CC1COC2(CCC(C(C)(C)C)CC2)O1 (stereo not drawn) is below 40% in terms of pest or weed control at 10 ppm.
Solution: label 1

Exercise: Input COc1cc(C)c(C(=O)c2c(OC)ccc(Br)c2C)c(OC)c1OC ; condition: pest or weed control at 10 ppm strictly below 40%. Does it hold?
Solution: label 1

Exercise: Please determine if CC(Cc1ccc(C(C)(C)C)cc1)CN1C[C@@H](C)O[C@@H](C)C1 (stereo partly drawn) is below 40% in terms of pest or weed control at 10 ppm.
Solution: label 1

Exercise: Does CCCC(Cn1cncn1)c1ccc(Cl)cc1Cl (stereo not drawn) have pest or weed control at 10 ppm strictly under 40%?
Solution: label 1

----------
Recorded pest or weed control at 256 ppm by entry
# Tested on: Puccinia recondita on wheat
# PROTOCOL DESCRIPTION: Greenhouse trial, 4 day residual, Puccinia recondita on wheat
# Type: in vivo
# REPORTED CONDITIONS: Puccinia recondita, 96 h, Table IX; compound alone, dose rate 256 ppm; read-out: Observed Efficacy
Quick note: give the figure in %, leave out the unit.

pest or weed control at 256 ppm of O=C1C2CC=CCC2C(=O)N1SC(Cl)(Cl)Cl (centres unmarked) , assay on Puccinia recondita on wheat, is 89

Hey, Puccinia recondita on wheat data for COCC(=O)N(c1c(C)cccc1C)C(C)C(=O)OC (centres unmarked) [Metalaxyl] : pest or weed control at 256 ppm came out at 12

Sample O=[N+]([O-])c1cc(C(F)(F)F)c(Cl)c([N+](=O)[O-])c1Nc1ncc(C(F)(F)F)cc1Cl , system: Puccinia recondita on wheat. Its pest or weed control at 256 ppm is 80

// pest or weed control at 256 ppm (Puccinia recondita on wheat) for COc1cc(C)c(C(=O)c2c(OC)ccc(Br)c2C)c(OC)c1OC = 38

Entry N#Cc1c[nH]cc1-c1cccc(Cl)c1Cl under Puccinia recondita on wheat had pest or weed control at 256 ppm of 58

----------
Catalogue of compounds with associated pest or weed control at 0.4 ppm
# Tested on: Erysiphe cichoracearum on cucumbers
# PROTOCOL DESCRIPTION: Greenhouse trial, 4 day residual, Erysiphe cichoracearum on cucumbers
# Assay type: in vivo
# REPORTED CONDITIONS: Golovinomyces cichoracearum, 96 h, Table XIV (Example 14), 4 day residual, dose rate 0.4 ppm; read-out: Observed Efficacy
Quick reminder: number only, in %, skip the unit.

Please review the entries below; each comes with its answer.
COMPOUND	UNIT SYMBOL	pest or weed control at 0.4 ppm
CCCN(CC)CC1COC2(CCC(C(C)(C)C)CC2)O1 (stereo not drawn)	%	0
CC(C)(C)C(O)C(Oc1ccc(Cl)cc1)n1cncn1 (stereo not drawn)	%	1
CC(C1CC1)C(O)(Cn1cncn1)c1ccc(Cl)cc1 (stereo not drawn)	%	19
COc1cc(C)c(C(=O)c2c(OC)ccc(Br)c2C)c(OC)c1OC	%	0
OC(c1ccc(Cl)cc1)(c1cncnc1)c1ccccc1Cl (stereo not drawn)	%	5
CCCC(Cn1cncn1)c1ccc(Cl)cc1Cl (stereo not drawn)	%	6

Documented pest or weed control at 0.4 ppm of CON=C(Cc1cccnc1)c1ccc(Cl)cc1Cl : 0

Reported pest or weed control at 0.4 ppm for CC(C)(C)C(=O)C(Oc1ccc(Cl)cc1)n1cncn1 (stereo not drawn) was 0

Measured pest or weed control at 0.4 ppm of CC(Cc1ccc(C(C)(C)C)cc1)CN1C[C@@H](C)O[C@@H](C)C1 (stereo partly drawn) : 0

----------
# Test system: Erysiphe cichoracearum on cucumbers
# PROTOCOL DESCRIPTION: Greenhouse trial, 4 day residual, Erysiphe cichoracearum on cucumbers
# Type: in vivo
# REPORTED CONDITIONS: Golovinomyces cichoracearum, 96 h, Table VI; compound alone, dose rate 4 ppm; read-out: Observed Efficacy
MEASURED ENDPOINT: pest or weed control at 4 ppm
I'd appreciate it if you included the unit after the number.

COMPOUND	MEASURED ENDPOINT	RESULT VALUE
CC(Cc1ccc(C(C)(C)C)cc1)CN1CCCCC1 (centres unmarked) [Fenpropidin]	pest or weed control at 4 ppm	0%

Lab note: measured pest or weed control at 4 ppm of N#Cc1c(Cl)c(Cl)c(Cl)c(C#N)c1Cl [Chlorothalonil] was 0%

Sample COc1ccc(C(=CC(=O)N2CCOCC2)c2ccc(Cl)cc2)cc1OC [Dimethomorph] ; pest or weed control at 4 ppm observed: 0%

Entry N#Cc1sc2c(=O)c3ccccc3c(=O)c=2sc1C#N [Dithianon] ; pest or weed control at 4 ppm = 0%

The recorded pest or weed control at 4 ppm for entry COc1cc(C)c(C(=O)c2c(OC)ccc(Br)c2C)c(OC)c1OC [BP-4] equals 6%

----------
# Tested on: Pyrenophora teres on barley
# PROTOCOL DESCRIPTION: Greenhouse trial, 4 day residual, Pyrenophora teres on barley
# Assay type: in vivo
# REPORTED CONDITIONS: Pyrenophora teres, 96 h, Table XVI (Example 16), 4 day residual, dose rate 10 ppm; read-out: Observed Efficacy
Each item that follows carries a reported pest or weed control at 10 ppm.
Report the figure in % without appending any unit label.

Examples from the recorded data:
COMPOUND	TESTED ON	UNIT SYMBOL	pest or weed control at 10 ppm
CCCN(CC)CC1COC2(CCC(C(C)(C)C)CC2)O1 (centres unmarked)	Pyrenophora teres on barley	%	5
OC(c1ccc(Cl)cc1)(c1cncnc1)c1ccccc1Cl (centres unmarked)	Pyrenophora teres on barley	%	4
COc1cc(C)c(C(=O)c2c(OC)ccc(Br)c2C)c(OC)c1OC	Pyrenophora teres on barley	%	0
CC(Cc1ccc(C(C)(C)C)cc1)CN1C[C@@H](C)O[C@@H](C)C1 (some centres unmarked)	Pyrenophora teres on barley	%	3

With those in mind, consider the next compound.
The measured pest or weed control at 10 ppm associated with CC(C1CC1)C(O)(Cn1cncn1)c1ccc(Cl)cc1 (centres unmarked) reads 1

----------
List of pest or weed control at 64 ppm values.
# Test system: Puccinia recondita on wheat
# PROTOCOL DESCRIPTION: Greenhouse trial, 4 day residual, Puccinia recondita on wheat
# Format: in vivo
# REPORTED CONDITIONS: Puccinia recondita, 96 h, Table VII; compound alone, dose rate 64 ppm; read-out: Observed Efficacy
# Method: The fungicides are applied in single treatments, or in a combination comprising a benzophenone of formula I and a compound selected from (A) through (E) as defined above. […] 4. Disease on the foliage as percent leaf area with disease symptoms/signs is evaluated about 7 days after inoculation. […] Assessments of the diseases took place at the indicated day after the application of the compounds. Per cent infected leaf area infected was evaluated. […]
Report as a plain number; the unit % is understood.

// solved cases for pest or weed control at 64 ppm follow
COMPOUND	TESTED ON	MEASURED ENDPOINT	RESULT VALUE
COc1cc(C)c(C(=O)c2c(OC)ccc(Br)c2C)c(OC)c1OC	Puccinia recondita on wheat	pest or weed control at 64 ppm	0
N#Cc1sc2c(=O)c3ccccc3c(=O)c=2sc1C#N	Puccinia recondita on wheat	pest or weed control at 64 ppm	84
CC(Cc1ccc(C(C)(C)C)cc1)CN1CCCCC1 (centres unmarked)	Puccinia recondita on wheat	pest or weed control at 64 ppm	8
COc1ccc(C(=CC(=O)N2CCOCC2)c2ccc(Cl)cc2)cc1OC	Puccinia recondita on wheat	pest or weed control at 64 ppm	0

Then there is this compound:
N#Cc1c(Cl)c(Cl)c(Cl)c(C#N)c1Cl yielded pest or weed control at 64 ppm of 0

Just for reference, patent US6346535B1 is where these values come from.
